Values compiled from ChEMBL document CHEMBL5104168.

- assay-method-text: Cytotoxicity against HUVEC cells assessed as inhibition of cell growth
- measurement-conditions: human
Quick list: IC50 per entry.

compound | IC50 (µM)
O=C1C=CC2(OCC(=O)N2Cc2ccc(Cl)cc2)C2CC12 (configuration not stated) | 83.7
O=C1C=CC2(C=C1)OCC(=O)N2Cc1ccc(Cl)cc1 | 44.6

---

- Test system: A549
- assay-method-text: Anticancer activity against human A549 cells assessed as inhibition of cell proliferation
- Format: functional, cell-based
# IC50 values compiled below
property-name: IC50 (µM)

compound | test-target | relation-qualifier | recorded-number
O=C1C=CC2(C=C1)OCC(=O)N2Cc1cccc(Cl)c1 | A549 | = | 3.01
COC(=O)C(C(=O)OC)C1CC(=O)C=CC12OCC(=O)N2Cc1ccc(Br)cc1 (centres undefined) | A549 | = | 2.55
O=C1C=CC2(OCC(=O)N2Cc2ccccc2Cl)C2CC12 (centres undefined) | A549 | = | 0.66
Cc1ccc(CN2C(=O)COC23C=CC(=O)C=C3)cc1 | A549 | = | 0.26
COC(=O)C(C(=O)OC)C1CC(=O)C=CC12OCC(=O)N2Cc1ccc(Cl)cc1 (centres undefined) | A549 | = | 9.98
CCSC1CC(=O)CC(SCC)C12OCC(=O)N2Cc1ccc(C)cc1 (centres undefined) | A549 | = | 2.3
O=C1C=CC2(OCC(=O)N2Cc2ccc([N+](=O)[O-])cc2)C2CC12 (centres undefined) | A549 | > | 10
COC(=O)C(C(=O)OC)C1CC(=O)C=CC12OCC(=O)N2Cc1ccc(C)cc1 (centres undefined) | A549 | = | 9.25
O=C1C=CC2(C=C1)OCC(=O)N2Cc1ccccc1Cl | A549 | = | 1.05
CCSC1CC(=O)CC(SCC)C12OCC(=O)N2Cc1ccc(Cl)cc1 (centres undefined) | A549 | > | 10
COC(=O)C(C(=O)OC)C1CC(=O)C=CC12OCC(=O)N2Cc1cccc(Cl)c1 (centres undefined) | A549 | = | 0.26
O=C1C=CC2(C=C1)OCC(=O)N2Cc1ccc(Br)cc1 | A549 | = | 0.19
O=C1C=CC2(C=C1)OCC(=O)N2Cc1ccc([N+](=O)[O-])cc1 | A549 | = | 0.81
O=C1C=CC2(C=C1)OCC(=O)N2Cc1c(Cl)cccc1Cl | A549 | = | 4.95
